Values were extracted from ChEMBL document CHEMBL3885861.

# Organism: Rattus norvegicus
# TEST_DETAILS: Open TG-GATES - Regimen: Single
# Assay type: toxicity, organism-based, Sprague-Dawley
# Parameters: regimen Single, gender Male, age 6 weeks
# RUN_PARAMETERS: in vivo, po, 0 mg/kg, 24 h, tissue Blood, route gavage, dose level Control
I'd appreciate it if you could supply Bas values for the items below.
Give the value; after it, write the unit.

Look over these answered cases.
{"COMPOUND": "O=c1ccc2ccccc2o1 [COUMARIN]", "Bas": "0%"}
{"COMPOUND": "Nc1ccc(Cc2ccc(N)cc2)cc1", "Bas": "0%"}
{"COMPOUND": "O=C(O)c1ccccc1Nc1ccccc1 [FENAMIC ACID]", "Bas": "0.8%"}
{"COMPOUND": "CCN(CC)C(=S)SSC(=S)N(CC)CC", "Bas": "0%"}
{"COMPOUND": "NS(=O)(=O)c1cc(C(=O)O)c(NCc2ccco2)cc1Cl [FUROSEMIDE]", "Bas": "0%"}

Shift focus to the following entry.
Provide Bas value for the following compound: CCO [ALCOHOL]
0%

###

I'd appreciate it if you could supply TP values for the items below.
# Species: Rattus norvegicus
# TEST_DETAILS: Open TG-GATES - Regimen: Daily Repeat
# Format: toxicity, organism-based, Sprague-Dawley
# Set-up: regimen Daily Repeat, gender Male, age 6 weeks
# RUN_PARAMETERS: in vivo, po, 300 mg/kg, […], tissue Plasma, route gavage, dose level Middle, time 14 day
Numbers only, in g/dL.

Look over these answered cases.
{"COMPOUND": "CC(S)C(=O)NCC(=O)O (centres undefined)", "MEASURED_VALUE": 5.6}
{"COMPOUND": "O=C(O)c1ccccc1Nc1ccccc1", "MEASURED_VALUE": 6.2}
{"COMPOUND": "CCCCNC(=O)NS(=O)(=O)c1ccc(C)cc1 [TOLBUTAMIDE]", "MEASURED_VALUE": 5.8}

Shift focus to the following entry.
Provide TP value for the following compound: CC(=O)[C@@]1(O)CC[C@H]2[C@@H]3C=C(Cl)C4=CC(=O)CC[C@]4(C)[C@H]3CC[C@@]21C
6

###

# Species: Rattus norvegicus
# TEST_DETAILS: Open TG-GATES - Regimen: Daily Repeat
# Format: toxicity, organism-based, Sprague-Dawley
# Parameters: regimen Daily Repeat, gender Male, age 6 weeks
# RUN_PARAMETERS: in vivo, po, 0 mg/kg, […], tissue Blood, route gavage, dose level Control, time 14 day
I'd appreciate it if you could supply Ht values for the items below.
Answers are plain numbers, in %.

{"MOLECULE": "CN(CCOc1ccc(CC2SC(=O)NC2=O)cc1)c1ccccn1.O=C(O)/C=C\\C(=O)O (stereo not given) [ROSIGLITAZONE MALEATE]", "UNIT_OF_MEASURE": "%", "Ht": 42.3}
{"MOLECULE": "CCN(CC)C(=S)SSC(=S)N(CC)CC", "UNIT_OF_MEASURE": "%", "Ht": 41.2}

Items follow; give Ht for each.
1. Nc1ccc(Cc2ccc(N)cc2)cc1
2. CCCCNC(=O)NS(=O)(=O)c1ccc(C)cc1 [TOLBUTAMIDE]
3. CN(C/C=C/C#CC(C)(C)C)Cc1cccc2ccccc12 [TERBINAFINE]

39
43.7
43.1

###

I'd appreciate it if you could supply RALB values for the items below.
# Species: Rattus norvegicus
# TEST_DETAILS: Open TG-GATES - Regimen: Single
# Assay type: toxicity, organism-based, Sprague-Dawley
# Design: regimen Single, gender Male, age 6 weeks
# RUN_PARAMETERS: in vivo, po, 0 mg/kg, 9 h, tissue Plasma, route gavage, dose level Control
Numbers only, in g/dL.

{"MOLECULE": "COc1cc2ncnc(Nc3ccc(F)c(Cl)c3)c2cc1OCCCN1CCOCC1 [GEFITINIB]", "MEASURED_VALUE": 3.9}
{"MOLECULE": "CC(=O)[C@@]1(O)CC[C@H]2[C@@H]3C=C(Cl)C4=CC(=O)CC[C@]4(C)[C@H]3CC[C@@]21C [CHLORMADINONE]", "MEASURED_VALUE": 3}
{"MOLECULE": "CN(C/C=C/C#CC(C)(C)C)Cc1cccc2ccccc12 [TERBINAFINE]", "MEASURED_VALUE": 3.4}

Shift focus to the following entry.
Provide RALB value for the following molecule: NS(=O)(=O)c1cc(C(=O)O)c(NCc2ccco2)cc1Cl [FUROSEMIDE]
2.6

###

# Species on record: Rattus norvegicus
# TEST_DETAILS: Open TG-GATES - Regimen: Daily Repeat
# Assay type: toxicity, organism-based, Sprague-Dawley
# Design: regimen Daily Repeat, gender Male, age 6 weeks
# RUN_PARAMETERS: in vivo, po, 100 mg/kg, […], tissue Blood, route gavage, dose level Low, time 28 day
OUTCOME_MEASURE: Ht

Look over these answered cases.
{"MOLECULE": "CCCCNC(=O)NS(=O)(=O)c1ccc(C)cc1 [TOLBUTAMIDE]", "Ht": "46.6%"}
{"MOLECULE": "CC(=O)[C@@]1(O)CC[C@H]2[C@@H]3C=C(Cl)C4=CC(=O)CC[C@]4(C)[C@H]3CC[C@@]21C [CHLORMADINONE]", "Ht": "45.1%"}
{"MOLECULE": "CC(S)C(=O)NCC(=O)O (centres undefined) [TIOPRONIN]", "Ht": "43.1%"}

Shift focus to the following entry.
Provide Ht value for the following molecule: O=C(O)c1ccccc1Nc1ccccc1 [FENAMIC ACID]
43.9%

###

# Species: Rattus norvegicus
# TEST_DETAILS: Open TG-GATES - Regimen: Daily Repeat
# Format: toxicity, organism-based, Sprague-Dawley
# Design: regimen Daily Repeat, gender Male, age 6 weeks
# RUN_PARAMETERS: in vivo, po, 1000 mg/kg, […], tissue Plasma, route gavage, dose level High, time 28 day
OUTCOME_MEASURE: RALB (g/dL)
Give bare numbers, in g/dL.

Items follow; give RALB for each.
1. CC(=O)[C@@]1(O)CC[C@H]2[C@@H]3C=C(Cl)C4=CC(=O)CC[C@]4(C)[C@H]3CC[C@@]21C
2. O=C(O)c1ccccc1Nc1ccccc1
3. CC(S)C(=O)NCC(=O)O (centres undefined)
4. CCCCNC(=O)NS(=O)(=O)c1ccc(C)cc1 [TOLBUTAMIDE]

1: 3.4; 2: 2.5; 3: 3.2; 4: 2.7

###

I'd appreciate it if you could supply Eos values for the items below.
# Organism: Rattus norvegicus
# TEST_DETAILS: Open TG-GATES - Regimen: Daily Repeat
# Type: toxicity, organism-based, Sprague-Dawley
# Parameters: regimen Daily Repeat, gender Male, age 6 weeks
# RUN_PARAMETERS: in vivo, po, 300 mg/kg, […], tissue Blood, route gavage, dose level Middle, time 14 day
Give the value; after it, write the unit.

{"COMPOUND": "CC(=O)[C@@]1(O)CC[C@H]2[C@@H]3C=C(Cl)C4=CC(=O)CC[C@]4(C)[C@H]3CC[C@@]21C", "Eos": "1%"}
{"COMPOUND": "O=C(O)c1ccccc1Nc1ccccc1", "Eos": "0.8%"}
{"COMPOUND": "CCCCNC(=O)NS(=O)(=O)c1ccc(C)cc1 [TOLBUTAMIDE]", "Eos": "1%"}

Shift focus to the following entry.
Provide Eos value for the following compound: CC(S)C(=O)NCC(=O)O (centres undefined)
1%

###

# Species: Rattus norvegicus
# TEST_DETAILS: Open TG-GATES - Regimen: Daily Repeat
# Format: toxicity, organism-based, Sprague-Dawley
# Set-up: regimen Daily Repeat, gender Male, age 6 weeks
# RUN_PARAMETERS: in vivo, po, 0 mg/kg, […], tissue Plasma, route gavage, dose level Control, time 7 day
I'd appreciate it if you could supply TG values for the items below.
Numbers only, in mg/dL.

Look over these answered cases.
{"MOLECULE": "COc1ccc([C@@H]2Sc3ccccc3N(CCN(C)C)C(=O)[C@@H]2OC(C)=O)cc1 [DILTIAZEM]", "OUTCOME_MEASURE": "TG", "MEASURED_VALUE": 112.6}
{"MOLECULE": "CCO [ALCOHOL]", "OUTCOME_MEASURE": "TG", "MEASURED_VALUE": 108}
{"MOLECULE": "CN(C/C=C/C#CC(C)(C)C)Cc1cccc2ccccc12 [TERBINAFINE]", "OUTCOME_MEASURE": "TG", "MEASURED_VALUE": 95.8}

Items follow; give TG for each.
1. CC(S)C(=O)NCC(=O)O (stereo not drawn) [TIOPRONIN]
2. CCCCC1C(=O)N(c2ccccc2)N(c2ccccc2)C1=O [PHENYLBUTAZONE]
3. NS(=O)(=O)c1cc(C(=O)O)c(NCc2ccco2)cc1Cl [FUROSEMIDE]

1. 107.2
2. 112.6
3. 119.8

Items follow; give TG for each.
1. CC(=O)[C@@]1(O)CC[C@H]2[C@@H]3C=C(Cl)C4=CC(=O)CC[C@]4(C)[C@H]3CC[C@@]21C [CHLORMADINONE]
2. CN(CCOc1ccc(CC2SC(=O)NC2=O)cc1)c1ccccn1.O=C(O)/C=C\C(=O)O (stereo not drawn) [ROSIGLITAZONE MALEATE]

1. 114.8
2. 138.8

Items follow; give TG for each.
1. O=C(O)c1ccccc1Nc1ccccc1 [FENAMIC ACID]
2. O=c1ccc2ccccc2o1 [COUMARIN]
3. CCCCNC(=O)NS(=O)(=O)c1ccc(C)cc1 [TOLBUTAMIDE]
4. Nc1ccc(Cc2ccc(N)cc2)cc1
5. CCN(CC)C(=S)SSC(=S)N(CC)CC

119.4
108.8
139.8
106
106.6
